test: yeast growth modulation, basal conditions, primary screen, YJM789 clinical isolate, OD600, 24 h (AID 1089);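 further: growth of clinical yeast isolate S. cerevisiae YJM 789 seeded 1000 cells per well; test concentration not given here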; details: S. cerevisiae YJM789 growth, higher = more signal, called active from +8 up or from −8 down
Each record gets a class by z-score: I = under -0.4, II = from -0.4 up to 0.3, III = 0.3 and over

[
  {
    "compound": "CCCC[C@@H]1C[C@H]1[C@@H](NC(=O)c1ccco1)c1ccc(C(=O)OC)cc1",
    "category": "II"
  },
  {
    "compound": "COC(=O)C=C(CC(O)c1cccc(Cl)c1)OC (stereo not given)",
    "category": "I"
  },
  {
    "compound": "O=C1O[C@@H](c2ccccc2)[C@@H](c2ccccc2)N2[C@@H](c3ccccc3OCCO)[C@]3(C(=O)Nc4ccc(C#CC5=CCCCC5)cc43)[C@@H](C(=O)Nc3nc4ccccc4s3)[C@H]12",
    "category": "III"
  },
  {
    "compound": "COCCOC(=O)N1C(=O)[C@@]2(c3cc(C#CCCO)ccc31)[C@H](C(=O)N1CCN(c3ncccn3)CC1)[C@H]1C(=O)O[C@H](c3ccccc3)[C@H](c3ccccc3)N1[C@@H]2c1ccccc1OCCO",
    "category": "III"
  },
  {
    "compound": "O=C1OCCC/C=C\\[C@H]2OC34C=CCN(Cn5nnc6ccccc65)C(=O)[C@H]3N(CCCCCCO)C(=O)[C@@H]4C12 (stereo not given in full)",
    "category": "I"
  },
  {
    "compound": "C=C(/C(=C/C[C@@H](OC(C)=O)c1ccc(OCCO)cc1)c1cnc2ccccc2c1)C(C)C",
    "category": "II"
  },
  {
    "compound": "[N-]=[N+]=NCc1ccccc1C[C@]1(C(=O)NCC(O)CO)N=C(c2ccc(OCCCO)cc2)O[C@H]1c1ccccc1 (stereo not given in full)",
    "category": "II"
  },
  {
    "compound": "C[C@@]1([C@@H](NC(=O)c2ccccc2)c2ccc(-c3ccccc3)cc2)C[C@H]1C1CCCCC1",
    "category": "II"
  },
  {
    "compound": "COc1ccc(C(O)C2C=CC3C(=O)N(c4ccccc4)C(=O)C3N2Nc2ccc(C(C)C)cc2)cc1OCc1ccccc1 (stereo not given)",
    "category": "III"
  },
  {
    "compound": "O=C1NC(=O)C2C1C=CC(C(O)c1cccc3ccccc13)N2Nc1ccccn1 (stereo not given)",
    "category": "II"
  },
  {
    "compound": "O=C(NCc1ccccc1)[C@@H]1c2ccccc2C(=O)N(CC23CC4CC(CC(C4)C2)C3)[C@H]1c1ccc(CO)cc1",
    "category": "I"
  },
  {
    "compound": "COc1ccc(CCNC(=O)[C@@]2(C)c3ccccc3C(=O)N(Cc3cc(F)cc(C(F)(F)F)c3)[C@H]2c2ccc(CO)cc2)cc1",
    "category": "II"
  },
  {
    "compound": "COCCCN1C(=O)[C@@]2(Cc3ccccc31)c1ccccc1C(=O)N(Cc1ccccc1C(F)(F)F)[C@H]2c1ccc(CO)cc1",
    "category": "III"
  },
  {
    "compound": "COC(=O)[C@@]1(Cc2ccc(F)cc2)[C@@H]2[C@@H](CC(=O)[C@H]2CC(=O)C(=O)N(C)C)CN1C(=O)c1ccccc1",
    "category": "III"
  },
  {
    "compound": "O=C1C[C@]2(c3ccc([N+](=O)[O-])cc3)C(=O)N(CCN3CCOCC3)c3cc(CO)ccc3[C@H]2N1C1CCCCC1",
    "category": "I"
  },
  {
    "compound": "CC1CC/C=C\\[C@H]2OC34C=CCN(c5ccc(Cl)cc5)C(=O)[C@H]3N(CCO)C(=O)[C@]4(C)C2C(=O)O1 (stereo not given in full)",
    "category": "I"
  },
  {
    "compound": "COc1ccc(C(=O)Nc2cccc(CN3C(=O)[C@]4(O[C@H](CCO)[C@@H]([Si](C)(C)c5ccc(OC)cc5)[C@@H]4C)c4ccccc43)c2)cc1",
    "category": "III"
  },
  {
    "compound": "COc1ccc(C(O)C2C=CC3C(=O)NC(=O)C3N2Nc2ccccn2)cc1 (stereo not given)",
    "category": "II"
  },
  {
    "compound": "C=CCNC(=O)[C@@H]1[C@H]2C(=O)O[C@H](c3ccccc3)[C@H](c3ccccc3)N2[C@H](c2ccccc2OCCO)[C@@]12C(=O)N(C(=O)OCCOC)c1ccc(C#CCNC(N)=O)cc12",
    "category": "III"
  },
  {
    "compound": "COc1ccc([Si](C)(C)[C@H]2[C@H](CCn3cc([C@H](O)c4ccccc4)nn3)O[C@@]3(C(=O)N(Cc4cccc(N5CCOC5=O)c4)c4ccccc43)[C@@H]2C)cc1",
    "category": "II"
  },
  {
    "compound": "CCN(CC)c1ccc(N2CC=CC34O[C@@H]5/C=C\\CCC(C)OC(=O)C5[C@H]3C(=O)N(C(CO)C(C)C)[C@@H]4C2=O)cc1 (stereo not given in full)",
    "category": "I"
  },
  {
    "compound": "C=C[C@H](COC(C)=O)N(C(=O)OC(C)(C)C)S(=O)(=O)c1ccc(Br)cc1",
    "category": "II"
  },
  {
    "compound": "O=C(O)[C@@]1(CCS(=O)(=O)c2ccccc2)COC(c2ccc(OCCCO)cc2)=N1",
    "category": "III"
  },
  {
    "compound": "Cc1ccc(C(C)CC(O)C2C=CC3C(=O)N(c4ccccc4)C(=O)C3N2Nc2ccc([N+](=O)[O-])cc2)o1 (stereo not given)",
    "category": "II"
  },
  {
    "compound": "O=C(NCc1ccccc1)[C@@]1(Cc2ccccc2)N=C(c2ccc(OCCCO)cc2)O[C@H]1c1ccccc1",
    "category": "III"
  },
  {
    "compound": "COc1ccc(C(=O)Nc2ccc(CN3C(=O)[C@@]4(O[C@@H](CCO)[C@H]([Si](C)(C)c5ccc(OC)cc5)[C@H]4C)c4ccccc43)cc2)cc1",
    "category": "I"
  },
  {
    "compound": "CCCCCCC#C[Si](O[C@H](c1ccccc1)c1cn([C@H](CO)Cc2ccccc2)nn1)(C(C)C)C(C)C",
    "category": "I"
  },
  {
    "compound": "CCCC=C(CCC)[C@@H](NC(=O)Oc1ccc(F)cc1)c1ccc(C(=O)OC)cc1",
    "category": "III"
  },
  {
    "compound": "CC(C)C[C@@H]1NC(=O)[C@H]2C[C@@H](C(=O)NCCCCCCN(C)C)[C@@H](c3ccc(O)cc3)N2C1=O",
    "category": "I"
  }
]
